Settings: in PEG-400, 313.15 K
measurement_name: solubility (mole fraction)
No unit in the answer, only the number.

State its solubility (mole fraction): CN(Cc1ccccc1)CN1C(=O)C(=NNC(=O)c2ccccc2OCc2ccccc2)c2ccccc21
0.00988

* * *

Conditions: in water, 308.15 K
measurement_name: solubility (mole fraction)
Output: the number by itself.

Output solubility (mole fraction) of CN(Cc1ccccc1)CN1C(=O)C(=NNC(=O)c2ccccc2OCc2ccccc2)c2ccccc21
1.89e-06

* * *

Conditions: in water, 298.15 K
measurement_name: solubility (mole fraction)
Answer using only a numeral; do not append any unit.

Using known records, supply solubility (mole fraction) for CN(Cc1ccccc1)CN1C(=O)C(=NNC(=O)c2ccccc2OCc2ccccc2)c2ccccc21
1.07e-06

* * *

Details: in water, 313.15 K
measurement_name: solubility (mole fraction)
Give the value as a plain number.

Specify reported solubility (mole fraction) for the molecule shown: CN(Cc1ccccc1)CN1C(=O)C(=NNC(=O)c2ccccc2OCc2ccccc2)c2ccccc21
2.39e-06

* * *

Conditions: in PEG-400, 298.15 K
measurement_name: solubility (mole fraction)

Give recorded solubility (mole fraction). CN(Cc1ccccc1)CN1C(=O)C(=NNC(=O)c2ccccc2OCc2ccccc2)c2ccccc21
0.007

* * *

Settings: in water, 318.15 K
measurement_name: solubility (mole fraction)
Give a plain numeric answer without units written out.

# return recorded solubility (mole fraction) for input CN(Cc1ccccc1)CN1C(=O)C(=NNC(=O)c2ccccc2OCc2ccccc2)c2ccccc21
2.97e-06

* * *

Conditions: in water, 303.15 K
measurement_name: solubility (mole fraction)
Simply state the number, no unit and no words.

Provide only the value of recorded solubility (mole fraction) for CN(Cc1ccccc1)CN1C(=O)C(=NNC(=O)c2ccccc2OCc2ccccc2)c2ccccc21
1.48e-06
